Test system: WA09 human embryonic stem (hES) cells
assay.comment: PLS-DA prediction of teratogenicity from secretome of treated hES cells (Example 9)
particulars: DevTox pharmaceutical, high dose (H = 10x circulating dose)
Record form. Attribute: % Ter (PLS-DA class probability teratogen). Fill in for each entry.

Quick one: give me % Ter (PLS-DA class probability teratogen) for each item below, same order please.
1. NC(=O)N1c2ccccc2C=Cc2ccccc21 [Carbamazepine]
2. NC(=O)NO [Hydroxyurea]
3. Cn1c(=O)c2c(ncn2C)n(C)c1=O
4. CC1=C(/C=C/C(C)=C/C=C/C(C)=C/CO)C(C)(C)CCC1
5. NNC(=O)c1ccncc1

Reply text:
[0.63, 0.68, 0.47, 0.35, 0.41]
